# SUBJECT OF TEST: Serine/threonine-protein kinase B-raf (Homo sapiens, UniProt P15056, V600E)
# Sequence (P15056 2-766 V600E limits assumed): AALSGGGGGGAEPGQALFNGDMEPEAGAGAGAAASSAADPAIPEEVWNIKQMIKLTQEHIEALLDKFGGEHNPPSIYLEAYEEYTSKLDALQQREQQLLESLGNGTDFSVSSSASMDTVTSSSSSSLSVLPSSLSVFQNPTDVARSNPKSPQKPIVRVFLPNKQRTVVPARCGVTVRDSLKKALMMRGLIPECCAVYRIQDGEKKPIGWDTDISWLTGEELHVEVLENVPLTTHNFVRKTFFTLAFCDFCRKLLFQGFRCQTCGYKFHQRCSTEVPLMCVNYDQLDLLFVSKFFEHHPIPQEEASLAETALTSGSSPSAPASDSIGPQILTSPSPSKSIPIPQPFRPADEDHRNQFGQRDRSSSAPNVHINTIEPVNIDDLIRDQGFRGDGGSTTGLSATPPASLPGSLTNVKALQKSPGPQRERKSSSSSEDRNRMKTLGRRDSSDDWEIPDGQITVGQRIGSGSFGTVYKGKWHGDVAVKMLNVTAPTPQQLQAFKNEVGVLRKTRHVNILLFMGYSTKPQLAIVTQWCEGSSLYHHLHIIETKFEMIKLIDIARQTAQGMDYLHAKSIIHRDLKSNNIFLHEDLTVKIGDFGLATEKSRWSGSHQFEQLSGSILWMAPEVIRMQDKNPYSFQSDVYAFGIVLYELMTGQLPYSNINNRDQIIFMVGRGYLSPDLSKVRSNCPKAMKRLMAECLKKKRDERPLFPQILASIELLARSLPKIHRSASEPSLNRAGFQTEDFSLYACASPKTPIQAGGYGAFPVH
# ASSAY METHOD TEXT: Inhibition of B-Raf V600E mutant (unknown origin) incubated for 1 hr by ELISA based luminescence assay
PARAMETER: IC50 (nM)
One number for each entry, in nM.

Output IC50 of Cc1cnc2[nH]cc(C(=O)c3c(F)ccc(N[S+]([O-])C(C)C)c3F)c2c1 (stereo unspecified)
54

---

# System: SW1417
# ASSAY METHOD TEXT: Antiproliferative activity against human SW1417 cells incubated for 72 hrs by celltiter glo assay
# Assay type: functional, cell-based
# APPLIED CONDITIONS: SW1417, 72 h
PARAMETER: IC50

Hello, please tell me recorded IC50 for this one: `CC(=O)Nc1cc(-c2sc(C3CCN(C4CC4)CC3)nc2-c2cccc(NS(=O)(=O)c3cc(F)ccc3F)c2F)ccn1`
208 nM

---

# Tested on: WM-115
# ASSAY METHOD TEXT: Antiproliferative activity against human WM-115 cells incubated for 72 hrs by celltiter glo assay
# Format: functional, cell-based
# APPLIED CONDITIONS: WM-115, 72 h
PARAMETER: pIC50
Answers are plain numbers, as −log10 of the molar value.

Recall and state the measured pIC50 for `CC(=O)Nc1cc(-c2sc(C3CCN(C4CC4)CC3)nc2-c2cccc(NS(=O)(=O)c3cc(F)ccc3F)c2F)ccn1` .
6.83

---

# ASSAY METHOD TEXT: Antiproliferative activity against human WM1361 cells assessed as cell growth inhibition
# Assay type: functional, cell-based
PARAMETER: pIC50
One number for each entry, as −log10 of the molar value.

# return recorded pIC50 for entry `COc1ccc(-n2cc(NC(=O)c3cccc(NC(=O)Nc4ccc(Cl)c(C(F)(F)F)c4)c3)cn2)cc1`
5.15

---

# SUBJECT OF TEST: Serine/threonine-protein kinase B-raf (Homo sapiens, UniProt P15056, V600E)
# ASSAY METHOD TEXT: Binding affinity to B-Raf V600E mutant (unknown origin)
PARAMETER: pIC50
One number for each entry, as −log10 of the molar value.

Print Serine/threonine-protein kinase B-raf (Homo sapiens, UniProt P15056, V600E) pIC50 for `COc1cccc(-c2nn(-c3ccccc3)cc2-c2ccncc2)c1` .
5.84

---

# Test system: Malme-3M
# ASSAY METHOD TEXT: Antiproliferative activity against human Malme-3M cells assessed as inhibition of cell viability
# Type: functional, cell-based
PARAMETER: IC50 (nM)
One number for each entry, in nM.

Give the reported value of IC50 for this record: `CN(C)CCOc1ccc(-c2n/c(=c3\ccc4c(c3)CCC=4N=O)c(=C3C=CNC=C3)[nH]2)cc1`
150

---

# System: SK-MEL-28
# ASSAY METHOD TEXT: Antiproliferative activity against human SK-MEL-28 cells assessed as inhibition of cell viability
# Type: functional, cell-based
PARAMETER: pIC50
Give bare numbers, as −log10 of the molar value.

Please supply the value of reported pIC50 for the item `CN(C)CCOc1ccc(-c2n/c(=c3\ccc4c(c3)CCC=4N=O)c(=C3C=CNC=C3)[nH]2)cc1`
6.92

---

# SUBJECT OF TEST: Serine/threonine-protein kinase B-raf (Mus musculus)
# Sequence (P28028 whole entry): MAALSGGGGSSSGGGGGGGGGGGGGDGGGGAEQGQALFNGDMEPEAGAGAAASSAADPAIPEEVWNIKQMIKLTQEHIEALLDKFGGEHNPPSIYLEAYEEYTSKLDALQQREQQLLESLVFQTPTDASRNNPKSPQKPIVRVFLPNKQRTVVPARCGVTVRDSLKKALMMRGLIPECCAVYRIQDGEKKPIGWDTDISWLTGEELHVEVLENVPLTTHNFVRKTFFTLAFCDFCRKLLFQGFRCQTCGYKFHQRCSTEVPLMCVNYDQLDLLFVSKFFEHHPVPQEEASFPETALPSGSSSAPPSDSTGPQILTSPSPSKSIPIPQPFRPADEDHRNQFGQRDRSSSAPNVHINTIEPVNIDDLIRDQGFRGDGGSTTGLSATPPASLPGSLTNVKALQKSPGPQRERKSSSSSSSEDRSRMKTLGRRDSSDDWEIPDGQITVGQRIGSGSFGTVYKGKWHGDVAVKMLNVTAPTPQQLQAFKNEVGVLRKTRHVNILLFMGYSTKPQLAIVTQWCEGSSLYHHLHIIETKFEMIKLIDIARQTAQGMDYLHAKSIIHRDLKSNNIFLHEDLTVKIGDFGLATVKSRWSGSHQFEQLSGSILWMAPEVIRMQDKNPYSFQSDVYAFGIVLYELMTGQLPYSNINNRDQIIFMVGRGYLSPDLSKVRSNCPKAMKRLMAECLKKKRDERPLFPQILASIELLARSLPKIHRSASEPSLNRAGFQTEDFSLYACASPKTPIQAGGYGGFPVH
Exercise: for every item that follows, state its recorded pIC50.
Answers are plain numbers, as −log10 of the molar value.

COc1ccc(-n2cc(Nc3cccc4[nH]ncc34)cn2)cc1	6.11

Moving on to the next molecule.
Give the measured pIC50 for `Cc1ccc(-n2cc(NC(=O)c3c[nH]c4ccccc34)cn2)cc1`
6.04
